Give measured MIC for each item. Keep answers brief.
System: Staphylococcus aureus
Test method notes: Antimicrobial activity against methicillin-resistant Staphylococcus aureus 75 after 18 hrs by broth microdilution method
Assay type: functional
Residues, ends and D or L forms follow the SMILES beside them. *: point of attachment. Stearoyl = CCCCCCCCCCCCCCCCCC(=O)*; Myristoyl = CCCCCCCCCCCCCC(=O)*; Lauroyl = CCCCCCCCCCCC(=O)*; Decanoyl = CCCCCCCCCC(=O)*; Octanoyl = CCCCCCCC(=O)*
Answer format: value, then unit.

1) O=C(O)c1cn(C2CC2)c2cc(N3CCNCC3)c(F)cc2c1=O	128 µM

For every item below, please supply its MIC.
1. CCCCCCCCCCCCCC(=O)N[C@@H](CCCNC(=N)N)C(=O)N[C@@H](Cc1c[nH]c2ccccc12)C(=O)N[C@@H](CCCNC(=N)N)C(N)=O (Myristoyl-Arg-Trp-Arg-NH2)
2. CCCCCCCCCCCC(=O)N[C@@H](CCCNC(=N)N)C(=O)N[C@@H](CCCNC(=N)N)C(=O)N[C@@H](CCCNC(=N)N)C(N)=O (Lauroyl-Arg-Arg-Arg-NH2)

[A]
["4 µM", "32 µM"]

For every item below, please supply its MIC.
1. CCCCCCCCCCCCCCCCCC(=O)N[C@@H](CCCNC(=N)N)C(=O)N[C@@H](CCCNC(=N)N)C(=O)N[C@@H](CCCNC(=N)N)C(N)=O (Stearoyl-Arg-Arg-Arg-NH2)
2. CCCCCCCC(=O)N[C@@H](CCCNC(=N)N)C(=O)N[C@@H](Cc1c[nH]c2ccccc12)C(=O)N[C@@H](CCCNC(=N)N)C(N)=O (Octanoyl-Arg-Trp-Arg-NH2)
3. CCCCCCCCCC(=O)N[C@@H](CCCNC(=N)N)C(=O)N[C@@H](CCCNC(=N)N)C(=O)N[C@@H](Cc1c[nH]c2ccccc12)C(N)=O (Decanoyl-Arg-Arg-Trp-NH2)

[A]
4 µM
128 µM
16 µM

----------
Give measured MHC10 for each item. Keep answers brief.
System: Erythrocyte
Test method notes: Hemolytic activity against mouse erythrocytes measured after 1 hr
Type: ADME, cell-based
Residues, ends and D or L forms follow the SMILES beside them. *: point of attachment. Stearoyl = CCCCCCCCCCCCCCCCCC(=O)*; Palmitoyl = CCCCCCCCCCCCCCCC(=O)*; Myristoyl = CCCCCCCCCCCCCC(=O)*; Lauroyl = CCCCCCCCCCCC(=O)*; Decanoyl = CCCCCCCCCC(=O)*

Below, each entry is followed by its recorded MHC10 result.
1. CCCCCCCCCCCCCC(=O)N[C@@H](CCCNC(=N)N)C(=O)N[C@@H](Cc1c[nH]c2ccccc12)C(=O)N[C@@H](Cc1c[nH]c2ccccc12)C(N)=O (Myristoyl-Arg-Trp-Trp-NH2)	> 256 µM
2. CCCCCCCCCCCCCCCCCC(=O)N[C@@H](CCCNC(=N)N)C(=O)N[C@@H](CCCNC(=N)N)C(=O)N[C@@H](CCCNC(=N)N)C(N)=O (Stearoyl-Arg-Arg-Arg-NH2)	32 µM

For every item below, please supply its MHC10.
1. CCCCCCCCCCCCCCCC(=O)N[C@@H](CCCNC(=N)N)C(=O)N[C@@H](Cc1c[nH]c2ccccc12)C(=O)N[C@@H](CCCNC(=N)N)C(N)=O (Palmitoyl-Arg-Trp-Arg-NH2)
2. CCCCCCCCCCCC(=O)N[C@@H](CCCNC(=N)N)C(=O)N[C@@H](Cc1c[nH]c2ccccc12)C(=O)N[C@@H](Cc1c[nH]c2ccccc12)C(N)=O (Lauroyl-Arg-Trp-Trp-NH2)
3. CCCCCCCCCC(=O)N[C@@H](CCCNC(=N)N)C(=O)N[C@@H](Cc1c[nH]c2ccccc12)C(=O)N[C@@H](CCCNC(=N)N)C(N)=O (Decanoyl-Arg-Trp-Arg-NH2)

[A]
["64 µM", "> 256 µM", "> 256 µM"]

For every item below, please supply its MHC10.
1. CCCCCCCCCCCCCC(=O)N[C@@H](CCCNC(=N)N)C(=O)N[C@@H](CCCNC(=N)N)C(=O)N[C@@H](CCCNC(=N)N)C(N)=O (Myristoyl-Arg-Arg-Arg-NH2)
2. CCCCCCCCCCCCCCCCCC(=O)N[C@@H](CCCNC(=N)N)C(=O)N[C@@H](Cc1c[nH]c2ccccc12)C(=O)N[C@@H](CCCNC(=N)N)C(N)=O (Stearoyl-Arg-Trp-Arg-NH2)
3. CCCCCCCCCCCCCC(=O)N[C@@H](CCCNC(=N)N)C(=O)N[C@@H](CCCNC(=N)N)C(=O)N[C@@H](Cc1c[nH]c2ccccc12)C(N)=O (Myristoyl-Arg-Arg-Trp-NH2)
4. CCCCCCCCCCCCCCCC(=O)N[C@@H](Cc1c[nH]c2ccccc12)C(=O)N[C@@H](CCCNC(=N)N)C(=O)N[C@@H](CCCNC(=N)N)C(N)=O (Palmitoyl-Trp-Arg-Arg-NH2)
5. CCCCCCCCCC(=O)N[C@@H](CCCNC(=N)N)C(=O)N[C@@H](CCCNC(=N)N)C(=O)N[C@@H](CCCNC(=N)N)C(N)=O (Decanoyl-Arg-Arg-Arg-NH2)
6. CCCCCCCCCCCCCCCCCC(=O)N[C@@H](CCCNC(=N)N)C(=O)N[C@@H](CCCNC(=N)N)C(=O)N[C@@H](Cc1c[nH]c2ccccc12)C(N)=O (Stearoyl-Arg-Arg-Trp-NH2)

[A]
["128 µM", "32 µM", "32 µM", "32 µM", "> 256 µM", "32 µM"]

----------
System: Erythrocyte
Test method notes: Hemolytic activity against mouse erythrocytes measured after 1 hr
Assay type: ADME, cell-based
Residues, ends and D or L forms follow the SMILES beside them. *: point of attachment. Palmitoyl = CCCCCCCCCCCCCCCC(=O)*; Myristoyl = CCCCCCCCCCCCCC(=O)*; Lauroyl = CCCCCCCCCCCC(=O)*
Give measured MHC10 for each item. Keep answers brief.
Give bare numbers, in µM.

1. CCCCCCCCCCCC(=O)N[C@@H](Cc1c[nH]c2ccccc12)C(=O)N[C@@H](CCCNC(=N)N)C(=O)N[C@@H](CCCNC(=N)N)C(N)=O (Lauroyl-Trp-Arg-Arg-NH2)	64
2. CCCCCCCCCCCCCCCC(=O)N[C@@H](CCCNC(=N)N)C(=O)N[C@@H](CCCNC(=N)N)C(=O)N[C@@H](Cc1c[nH]c2ccccc12)C(N)=O (Palmitoyl-Arg-Arg-Trp-NH2)	32
3. CCCCCCCCCCCCCC(=O)N[C@@H](Cc1c[nH]c2ccccc12)C(=O)N[C@@H](CCCNC(=N)N)C(=O)N[C@@H](CCCNC(=N)N)C(N)=O (Myristoyl-Trp-Arg-Arg-NH2)	64

[Q] Lab note: need MHC10 for CCCCCCCCCCCCCC(=O)N[C@@H](CCCNC(=N)N)C(=O)N[C@@H](Cc1c[nH]c2ccccc12)C(=O)N[C@@H](CCCNC(=N)N)C(N)=O (Myristoyl-Arg-Trp-Arg-NH2) on Erythrocyte, anyone have it?
[A] 64

----------
System: Staphylococcus aureus
Test method notes: Antimicrobial activity against Staphylococcus aureus ATCC 25923 after 18 hrs by broth microdilution method
Type: functional
Residues, ends and D or L forms follow the SMILES beside them. *: point of attachment. Palmitoyl = CCCCCCCCCCCCCCCC(=O)*; Lauroyl = CCCCCCCCCCCC(=O)*; Octanoyl = CCCCCCCC(=O)*
Assay readout: MIC (µM)
Numbers only, in µM.

1) CCCCCCCCCCCCCCCC(=O)N[C@@H](Cc1c[nH]c2ccccc12)C(=O)N[C@@H](CCCNC(=N)N)C(=O)N[C@@H](CCCNC(=N)N)C(N)=O (Palmitoyl-Trp-Arg-Arg-NH2)	8
2) CCCCCCCCCCCCCCCC(=O)N[C@@H](CCCNC(=N)N)C(=O)N[C@@H](CCCNC(=N)N)C(=O)N[C@@H](Cc1c[nH]c2ccccc12)C(N)=O (Palmitoyl-Arg-Arg-Trp-NH2)	8
3) CCCCCCCCCCCC(=O)N[C@@H](CCCNC(=N)N)C(=O)N[C@@H](CCCNC(=N)N)C(=O)N[C@@H](CCCNC(=N)N)C(N)=O (Lauroyl-Arg-Arg-Arg-NH2)	32
4) CCCCCCCC(=O)N[C@@H](CCCNC(=N)N)C(=O)N[C@@H](Cc1c[nH]c2ccccc12)C(=O)N[C@@H](Cc1c[nH]c2ccccc12)C(N)=O (Octanoyl-Arg-Trp-Trp-NH2)	16

We next turn to a different compound, shown below.
[Q] Recorded MIC for CCCCCCCCCCCC(=O)N[C@@H](CCCNC(=N)N)C(=O)N[C@@H](Cc1c[nH]c2ccccc12)C(=O)N[C@@H](CCCNC(=N)N)C(N)=O (Lauroyl-Arg-Trp-Arg-NH2) , please?
[A] 16

----------
System: Erythrocyte
Test method notes: Hemolytic activity against mouse erythrocytes measured after 1 hr
Assay type: ADME, cell-based
Residues, ends and D or L forms follow the SMILES beside them. *: point of attachment. Palmitoyl = CCCCCCCCCCCCCCCC(=O)*; Lauroyl = CCCCCCCCCCCC(=O)*; Decanoyl = CCCCCCCCCC(=O)*
Give measured MHC10 for each item. Keep answers brief.
One number for each entry, in µM.

1) CCCCCCCCCCCCCCCC(=O)N[C@@H](CCCNC(=N)N)C(=O)N[C@@H](CCCNC(=N)N)C(=O)N[C@@H](CCCNC(=N)N)C(N)=O (Palmitoyl-Arg-Arg-Arg-NH2)	64
2) CCCCCCCCCC(=O)N[C@@H](Cc1c[nH]c2ccccc12)C(=O)N[C@@H](CCCNC(=N)N)C(=O)N[C@@H](CCCNC(=N)N)C(N)=O (Decanoyl-Trp-Arg-Arg-NH2)	256

[Q] Recorded MHC10 for CCCCCCCCCCCC(=O)N[C@@H](CCCNC(=N)N)C(=O)N[C@@H](CCCNC(=N)N)C(=O)N[C@@H](Cc1c[nH]c2ccccc12)C(N)=O (Lauroyl-Arg-Arg-Trp-NH2) , please?
[A] 128
